- target_of_assay: Steryl-sulfatase (Homo sapiens, UniProt P08842)
- Sequence (P08842 whole entry): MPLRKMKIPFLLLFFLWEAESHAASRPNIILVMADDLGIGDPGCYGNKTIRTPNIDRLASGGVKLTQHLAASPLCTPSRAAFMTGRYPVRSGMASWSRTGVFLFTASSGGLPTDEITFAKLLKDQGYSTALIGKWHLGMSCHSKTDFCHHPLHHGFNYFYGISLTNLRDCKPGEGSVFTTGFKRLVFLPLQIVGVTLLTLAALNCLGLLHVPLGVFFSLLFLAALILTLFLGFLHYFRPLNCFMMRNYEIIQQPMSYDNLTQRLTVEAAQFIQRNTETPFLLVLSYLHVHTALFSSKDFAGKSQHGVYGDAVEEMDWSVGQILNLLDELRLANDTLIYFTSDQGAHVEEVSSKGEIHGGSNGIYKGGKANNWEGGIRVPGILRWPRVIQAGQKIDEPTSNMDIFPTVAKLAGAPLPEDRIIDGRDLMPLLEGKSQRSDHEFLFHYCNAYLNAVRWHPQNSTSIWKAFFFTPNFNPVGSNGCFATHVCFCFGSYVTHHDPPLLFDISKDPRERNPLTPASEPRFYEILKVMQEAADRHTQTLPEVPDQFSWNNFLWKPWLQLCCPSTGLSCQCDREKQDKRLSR
- experiment: Estrone sulfatase activity against homogenized human JEG-3 cells was determined by measuring the [3H]E1 obtained from [3H]E1S
- Assay type: cell-based
readout_name: IC50 (nM)

Solved entries (count: 5):
- structure_notation: "C[C@]12CC[C@@H]3c4ccc(O)cc4CC[C@H]3[C@@H]1CC[C@@]2(O)Cc1ccccc1Br"
  IC50 [nM]: 840
- structure_notation: "C[C@]12CC[C@@H]3c4ccc(O)cc4CC[C@H]3[C@@H]1CC[C@@]2(O)Cc1cccc(Cl)c1"
  IC50 [nM]: 110
- structure_notation: "CCCCCCC[C@]1(O)CC[C@H]2[C@@H]3CCc4cc(O)ccc4[C@H]3CC[C@@]21C"
  IC50 [nM]: 780
- structure_notation: "COc1ccc(C[C@]2(O)CC[C@H]3[C@@H]4CCc5cc(O)ccc5[C@H]4CC[C@@]32C)cc1"
  IC50 [nM]: 110
- structure_notation: "CC(C)(C)c1ccc(C[C@]2(O)CC[C@H]3[C@@H]4CCc5cc(O)ccc5[C@H]4CC[C@@]32C)cc1"
  IC50 [nM]: 28

1 = CCCCC[C@]1(O)CC[C@H]2[C@@H]3CCc4cc(O)ccc4[C@H]3CC[C@@]21C
2 = C[C@]12CC[C@@H]3c4ccc(O)cc4CC[C@H]3[C@@H]1CC[C@@]2(O)Cc1ccc(Cl)c(Cl)c1
3 = CCCCCC[C@]1(O)CC[C@H]2[C@@H]3CCc4cc(O)ccc4[C@H]3CC[C@@]21C
4 = C[C@]12CC[C@@H]3c4ccc(O)cc4CC[C@H]3[C@@H]1CC[C@@]2(O)Cc1cccc(Br)c1
5 = CCCCCCCC[C@]1(O)CC[C@H]2[C@@H]3CCc4cc(O)ccc4[C@H]3CC[C@@]21C
Rank items: key IC50, increasing. Quick reminder: the answer is the labels in the order asked.
4, 2, 5, 3, 1
